TARGET_OR_TEST_SYSTEM: guinea pig brain membranes
METHOD: Binding test with guinea pig brain membranes
CONDITION_DESCRIPTION: tested on guinea pig brain membranes; read-out: IC50 = 100 μM
Where a SMILES comes first, the peptide text is derived from it.
MEASUREMENT_LABEL: IC50 (nM)
All answers are understood in nM, so give the number only.

1. CC[C@H](C)[C@H](NC(=O)[C@H](CCCCN)NC(=O)[C@H](Cc1ccccc1)NC(=O)[C@H](CCC(N)=O)NC(=O)[C@H](C)NC(=O)[C@H](Cc1c[nH]c2ccccc12)NC(=O)[C@@H](N)CCC(N)=O)C(=O)N[C@@H](CCC(N)=O)C(=O)N[C@@H](Cc1c[nH]c2ccccc12)C(=O)N[C@@H](CC(N)=O)C(=O)N[C@@H](CCC(N)=O)C(=O)N[C@@H](CCCNC(=N)N)C(=O)N[C@@H](Cc1c[nH]c2ccccc12)C(N)=O [Example 61, H-QWAQFKIQWNQRW-NH2] (H-QWAQFKIQWNQRW-NH2) : 1110

Request: IC50, test system guinea pig brain membranes, entry CC(C)[C@H](NC(=O)[C@H](C)NC(=O)[C@H](CCCCN)NC(=O)[C@H](C)NC(=O)[C@@H]1CCCN1C(=O)[C@@H](NC(=O)[C@@H](NC(=O)[C@@H](N)[C@@H](C)O)C(C)C)[C@@H](C)O)C(=O)N[C@H](C(=O)N[C@H](C(=O)N1CCC[C@H]1C(N)=O)[C@@H](C)O)[C@@H](C)O [Example 59, H-TVTPAKAVTTP-NH2] (H-TVTPAKAVTTP-NH2) 410

Record lookup: for guinea pig brain membranes, what IC50 belongs to CC[C@H](C)[C@H](NC(=O)[C@@H]1CCCN1C(=O)CNC(=O)CN)C(=O)N[C@@H](CO)C(=O)N[C@@H](Cc1ccccc1)C(=O)N[C@@H](CO)C(=O)N[C@@H](CO)C(=O)N[C@@H](CO)C(=O)N[C@@H](CCCNC(=N)N)C(=O)N[C@@H](CO)C(N)=O [Example 25, H-GGPISFSSSRS-NH2] (H-GGPISFSSSRS-NH2) ? 310

Lookup: IC50 / guinea pig brain membranes / CC(C)C[C@H](NC(=O)[C@H](CCC(=O)O)NC(=O)[C@H](CC(=O)O)NC(=O)[C@H](CC(C)C)NC(=O)[C@@H](NC(=O)[C@H](Cc1ccccc1)NC(=O)[C@H](C)NC(=O)[C@H](Cc1c[nH]cn1)NC(=O)[C@H](CO)NC(=O)[C@H](CO)NC(=O)[C@@H](N)CC(=O)O)[C@@H](C)O)C(=O)N[C@@H](CCCNC(=N)N)C(N)=O [Example 17, H-DSSHAFTLDELR-NH2] (H-DSSHAFTLDELR-NH2) 680
